Measured values drawn from patent US20060073994A1 for this set.

Reported values of Residual activity after 2 weeks for individual entries
# Tested on: Protease enzyme
# RUN_DESCRIPTION: Residual activity of protease enzyme in liquid detergent formulation with added perfume component after storage
# Format: biochemical
# MEASUREMENT_PARAMETERS: 0.06% by weight perfume component added to 'base' liquid formulation; 2 weeks storage at 37° C.; activity determined at 40° C. in TRIS pH 9 buffer, tetrapeptide substrate; relative to t=0
MEASUREMENT_TYPE: Residual activity after 2 weeks (%)

{"columns": ["COMPOUND", "TARGET_OR_TEST_SYSTEM", "UNIT_TEXT", "OBSERVED_VALUE"],
 "data": [
  ["CC1=CCC(C(C)C)=CC1 [Gamma terpinolene]", "Protease enzyme", "%", 54],
  ["CC(=O)C1(C)CC2=C(CCCC2(C)C)CC1C (centres unmarked) [Iso e super]", "Protease enzyme", "%", 75],
  ["CC(=O)OCc1ccccc1 [Benzyl acetate]", "Protease enzyme", "%", 69],
  ["COC(=O)c1ccccc1N [Methyl anthranilate]", "Protease enzyme", "%", 70],
  ["CC(C)=CCCC(C)=CC=O [Citral]", "Protease enzyme", "%", 36],
  ["CC1=CCC(=C(C)C)CC1 [Terpinolene]", "Protease enzyme", "%", 47],
  ["CCCCCCCC=O [Octanal]", "Protease enzyme", "%", 44],
  ["CCC(C)(O)CCCC(C)C (centres unmarked) [Tetra hydrolinalool]", "Protease enzyme", "%", 65],
  ["CC(C)=CC1CC(C)CCO1 (centres unmarked) [Rose oxide]", "Protease enzyme", "%", 60],
  ["O=C/C=C/c1ccccc1 [Cinnamic aldehyde]", "Protease enzyme", "%", 58],
  ["CC(C)=CCCC(C)CC=O (centres unmarked) [Citronellal]", "Protease enzyme", "%", 62],
  ["CC(C)=CCCC1=CCC(C)(C=O)CC1 (centres unmarked) [Precyclemone]", "Protease enzyme", "%", 74],
  ["CC(CC=O)c1ccccc1 (centres unmarked) [Trifernal]", "Protease enzyme", "%", 74],
  ["N#CC(=C1CCCCC1)c1ccccc1 [Peonile]", "Protease enzyme", "%", 73],
  ["CC1=CC(C)C(C=O)CC1 (centres unmarked) [Cyclal C]", "Protease enzyme", "%", 45],
  ["C/C=C\\C(=O)C1C(C)=CCCC1(C)C (stereo not drawn) [Alpha damascone]", "Protease enzyme", "%", 68],
  ["C=C(C)[C@H]1CC=C(C)CC1 [Limonene]", "Protease enzyme", "%", 60]
]}
